- MEASURED_ON: SXc− (Homo sapiens)
- Sequence (Q9UPY5 whole entry): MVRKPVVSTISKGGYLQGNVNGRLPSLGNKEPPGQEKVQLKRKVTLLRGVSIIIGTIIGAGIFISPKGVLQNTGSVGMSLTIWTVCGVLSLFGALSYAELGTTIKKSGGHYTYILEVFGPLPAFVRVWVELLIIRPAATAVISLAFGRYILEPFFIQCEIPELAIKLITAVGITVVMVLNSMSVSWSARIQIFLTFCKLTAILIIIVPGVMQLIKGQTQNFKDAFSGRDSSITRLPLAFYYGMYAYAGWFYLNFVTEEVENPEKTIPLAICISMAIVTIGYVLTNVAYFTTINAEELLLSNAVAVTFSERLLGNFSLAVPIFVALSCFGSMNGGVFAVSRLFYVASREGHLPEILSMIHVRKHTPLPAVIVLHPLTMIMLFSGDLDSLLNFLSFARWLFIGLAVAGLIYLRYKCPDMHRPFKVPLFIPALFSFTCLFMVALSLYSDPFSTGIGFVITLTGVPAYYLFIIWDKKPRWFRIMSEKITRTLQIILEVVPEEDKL
- Sequence (P08195 102-630 partner): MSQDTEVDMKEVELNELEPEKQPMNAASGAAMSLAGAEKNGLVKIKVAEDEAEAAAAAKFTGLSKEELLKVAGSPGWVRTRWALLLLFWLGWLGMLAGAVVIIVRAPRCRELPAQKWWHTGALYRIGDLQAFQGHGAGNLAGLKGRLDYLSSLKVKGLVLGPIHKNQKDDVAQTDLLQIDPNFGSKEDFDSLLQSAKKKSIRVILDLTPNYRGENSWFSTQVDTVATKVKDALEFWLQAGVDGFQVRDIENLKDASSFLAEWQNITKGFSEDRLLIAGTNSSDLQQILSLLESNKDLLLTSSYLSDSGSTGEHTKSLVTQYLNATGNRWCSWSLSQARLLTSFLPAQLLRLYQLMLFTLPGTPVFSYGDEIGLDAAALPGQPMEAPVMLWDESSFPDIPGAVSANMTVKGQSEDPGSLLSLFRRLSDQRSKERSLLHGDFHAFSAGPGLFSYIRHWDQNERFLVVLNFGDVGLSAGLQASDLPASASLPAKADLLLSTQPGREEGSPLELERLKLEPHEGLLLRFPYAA
- PROTOCOL_SUMMARY: Inhibition of SXc−-mediated uptake of 3H-L-Glu into SNB19 cells
- Format: cell-based
- MEASUREMENT_PARAMETERS: read-out: IC50 for the inhibition of SXc−-mediated uptake of 3H-L-Glu into SNB19 cells; Mean ± SEM (n ≥ 3); single concentration of L-Glu (100 μM); Na+-free buffer, 5 min, 30°C
MEASURED_QUANTITY: IC50

Example cases with answers are listed next.
{"COMPOUND": "O=S(=O)(O)c1cc2cc(S(=O)(=O)O)c(O)cc2cc1O", "MEAS_VALUE": "> 500 µM"}
{"COMPOUND": "CC(=O)Nc1cc(S(=O)(=O)O)cc2cc(S(=O)(=O)O)c(N=Nc3ccccc3)c(O)c12 [Acid Red 1]", "MEAS_VALUE": "191 µM"}
{"COMPOUND": "Nc1cc(S(=O)(=O)O)cc2cc(S(=O)(=O)O)cc(O)c12 [4-Amino-5-OH-2,7-naphthylene-disulfonate]", "MEAS_VALUE": "> 500 µM"}

# ---- query compound ----
Which measured IC50 value corresponds to COc1ccccc1N=Nc1c(S(=O)(=O)O)cc2cc(S(=O)(=O)O)cc(NC(C)=O)c2c1O [Pontacyl Carmine 2B] ?
> 250 µM
